The following binders are shown together with reported koff values.
# test.target: human DLL3 protein (extracellular segment, His tag) (human) (UniProt Q9NYJ7)
# Sequence (Q9NYJ7 27-492): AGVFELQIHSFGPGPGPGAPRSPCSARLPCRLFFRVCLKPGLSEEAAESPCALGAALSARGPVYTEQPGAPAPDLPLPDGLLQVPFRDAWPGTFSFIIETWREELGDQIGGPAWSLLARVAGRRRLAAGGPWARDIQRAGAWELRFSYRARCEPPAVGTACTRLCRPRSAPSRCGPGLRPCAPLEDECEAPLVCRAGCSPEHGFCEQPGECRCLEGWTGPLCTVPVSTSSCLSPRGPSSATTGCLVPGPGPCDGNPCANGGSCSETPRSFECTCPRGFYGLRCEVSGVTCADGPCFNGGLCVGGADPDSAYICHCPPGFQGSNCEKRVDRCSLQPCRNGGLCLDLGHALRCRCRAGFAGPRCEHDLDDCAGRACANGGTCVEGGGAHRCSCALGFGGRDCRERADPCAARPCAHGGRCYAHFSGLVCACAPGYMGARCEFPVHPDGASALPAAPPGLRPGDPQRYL
# experimental.details: SPR (Biacore 8K), antibody captured on Protein A chip, DLL3 antigen in solution, 1:1 Langmuir fit
Kindly answer with a numeric value in s⁻¹, unit omitted.

Worked cases, answers included:
Hab015VL4VH6b-hFc (Fc fusion, part only; not given: VL-VH linker and human IgG1 Fc, not shown: another chain or arm of the molecule; a dimerising Fc or GST; small tags and cut ends) VL: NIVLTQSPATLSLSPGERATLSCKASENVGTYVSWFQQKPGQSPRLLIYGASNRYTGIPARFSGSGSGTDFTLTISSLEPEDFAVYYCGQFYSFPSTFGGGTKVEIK VH: EVQLVESGGGLVKPGGSLRLSCAASGITFSNFWMNWVRQAPEKGLEWVGQIRLKSDQYATHYAESVKGRFTISREDSKNTVYLQMNSLKTEDTAVYYCTTGYYFDYWGQGTTVTVSS: 2.5e-05
Hab014VL2VH1-hFc (scFv, part only; not given: scFv linker and human IgG1 Fc, V domains shown, not shown: another chain or arm of the molecule; a dimerising Fc or GST; small tags and cut ends) VL: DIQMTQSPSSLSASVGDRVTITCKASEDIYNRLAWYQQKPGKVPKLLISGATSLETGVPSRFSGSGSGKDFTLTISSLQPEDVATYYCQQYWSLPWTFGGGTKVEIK VH: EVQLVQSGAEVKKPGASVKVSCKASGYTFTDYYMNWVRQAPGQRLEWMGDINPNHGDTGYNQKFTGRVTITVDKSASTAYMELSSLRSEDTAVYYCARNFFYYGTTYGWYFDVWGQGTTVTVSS: 0.000135
mab009 scFv-hFc (Fc fusion, part only; not given: Linker and human IgG1 Fc, not shown: a dimerising Fc or GST) scFv, part: DIVMTQSPATLSVTPGDRVSLSCRASQTISDYLHWYQQRSHESPRLLIKYASQSISGIPSRFSGSGSGSDFTLSINSVEPEDVGVYYCQNGHSFPLTFGAGTKLELKEVQLQQSGTVLARPGASVKMSCKTSGYTFTSYWMHWVKQSPGQGLEWIGTIYPGNSDTRYNQKFKDKAYVTAVTSASTAYMELSSLTNEESAVYYCTRSYDYGDLDYWGQGTTLTVSS: 0.00132
Hab009VL3aVH1-hFc (scFv, part only; not given: VL-VH linker and human IgG1 Fc, V domains shown, not shown: another chain or arm of the molecule; a dimerising Fc or GST; small tags and cut ends) VL: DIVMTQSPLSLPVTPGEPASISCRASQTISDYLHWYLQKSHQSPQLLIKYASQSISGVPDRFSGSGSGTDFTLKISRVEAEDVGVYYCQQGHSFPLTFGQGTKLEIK VH: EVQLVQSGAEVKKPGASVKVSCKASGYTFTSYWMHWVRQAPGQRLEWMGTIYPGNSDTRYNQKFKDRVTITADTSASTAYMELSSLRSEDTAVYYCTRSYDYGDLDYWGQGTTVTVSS: 0.00175
Hab008L3H2a-hFc (scFv, part only; not given: VL-VH linker and human IgG1 Fc, V domains shown, not shown: another chain or arm of the molecule; a dimerising Fc or GST; small tags and cut ends) VL: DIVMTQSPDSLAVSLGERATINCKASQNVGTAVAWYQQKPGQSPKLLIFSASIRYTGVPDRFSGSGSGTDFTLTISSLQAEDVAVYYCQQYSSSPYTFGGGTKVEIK VH: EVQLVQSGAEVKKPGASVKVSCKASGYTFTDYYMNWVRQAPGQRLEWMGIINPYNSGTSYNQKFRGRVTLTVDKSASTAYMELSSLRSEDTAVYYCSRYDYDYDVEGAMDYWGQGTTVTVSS: 0.000405
Hab014VL1VH2-hFc (scFv, part only; not given: VL-VH linker and human IgG1 Fc, V domains shown, not shown: another chain or arm of the molecule; a dimerising Fc or GST; small tags and cut ends) VL: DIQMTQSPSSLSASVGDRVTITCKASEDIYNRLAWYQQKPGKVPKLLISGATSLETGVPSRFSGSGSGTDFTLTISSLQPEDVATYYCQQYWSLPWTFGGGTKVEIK VH: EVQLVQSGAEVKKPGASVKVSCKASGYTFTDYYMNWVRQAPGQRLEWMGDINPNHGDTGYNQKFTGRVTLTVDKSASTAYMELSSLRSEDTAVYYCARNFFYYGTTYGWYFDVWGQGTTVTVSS: 7.84e-05
Hab008L3H5-hFc (scFv, part only; not given: scFv linker and human IgG1 Fc, V domains shown, not shown: another chain or arm of the molecule; a dimerising Fc or GST; small tags and cut ends) VL: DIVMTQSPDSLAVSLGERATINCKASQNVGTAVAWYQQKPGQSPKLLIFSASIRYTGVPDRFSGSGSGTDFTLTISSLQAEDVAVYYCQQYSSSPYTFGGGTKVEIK VH: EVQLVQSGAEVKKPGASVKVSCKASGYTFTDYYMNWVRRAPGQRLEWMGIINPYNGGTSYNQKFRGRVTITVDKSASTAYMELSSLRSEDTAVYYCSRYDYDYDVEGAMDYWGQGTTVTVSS: 0.000312
mab015 scFv-hFc (Fc fusion, part only; not given: linker and human IgG1 Fc, not shown: a dimerising Fc or GST) scFv, part: NIVMTQSPKSMSMSVGERVTLSCKASENVGTYVSWFQQKPEQSPKLLIYGASNRYTGVPDRFTGSGSATDFTLTISSVQAEDLADYHCGQFYSFPCTFGGGTKLEIKEVKLEESGGGLVQPGGSMKLSCVASGITFSNFWMNWVRQSPEKGLEWVAQIRLKSDDYATHYAESVKGRFTISRDDSKGSVYLQMNNLRTEDTGIHYCTTGYYFDYWGQGTTLTVSS: 1.46e-06
Hab013VL2VH2a-hFc (scFv, part only; not given: scFv linker and human IgG1 Fc, V domains shown, not shown: another chain or arm of the molecule; a dimerising Fc or GST; small tags and cut ends) VL: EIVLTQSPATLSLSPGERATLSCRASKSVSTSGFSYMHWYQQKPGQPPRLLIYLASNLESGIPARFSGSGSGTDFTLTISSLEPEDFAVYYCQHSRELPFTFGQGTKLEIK VH: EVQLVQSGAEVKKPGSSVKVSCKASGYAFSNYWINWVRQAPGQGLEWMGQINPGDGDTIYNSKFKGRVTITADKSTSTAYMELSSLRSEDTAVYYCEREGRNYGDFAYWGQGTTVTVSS: 0.000371

Now consider the entry below.
Input: Look up and report measured koff for this entry: mab006 scFv-hFc (Fc fusion, part only; not given: linker and human IgG1 Fc, not shown: a dimerising Fc or GST) scFv, part: DVQITQSPSYLAASPGETITINCRATKSISKYLAWYQEKPGKTNKLLIFSGSTLQSGIPSRFRGSGSGTDFTLTISSLEPEDFAMYYCQQHHEYPYTFGGGTKLEIKQVQLQQPGAELVRPGTSVKLSCKASGYTFTSYWMHWVRQRPGQGLEWIGVIDPSDSLANYNQEFKGKATLTVDTSSSTAYMQLSSLTSEDSAVYYCARDSTVVAPMDYWGQGTSVTVSS
Output: 0.000203
